species on record: Homo sapiens; assay: Inhibition of sodium channel (unknown origin) at 10 uM relative to control
I'd appreciate it if you could supply inhibition values for the items below.
Give bare numbers, in %.

Test smiles	inhibition, %
COc1cccc2c1C(NC[C@]1(c3ccccc3)CC[C@H](NC(=O)OCC(F)(F)F)CC1)=NS2(=O)=O	23

I'm hoping you can list inhibition for every compound here, please.
1. COc1cccc2c1C(NC[C@]1(c3ccccc3)CC[C@H](OC(=O)Nc3nnc(C4CC4)s3)CC1)=NS2(=O)=O
2. COc1cccc2c1C(NC[C@]1(c3ccccc3)CC[C@H](O)CC1)=NS2(=O)=O
3. CCS(=O)(=O)N[C@H]1CC[C@](CNC2=NS(=O)(=O)c3cccc(OC)c32)(c2ccccc2)CC1
4. COc1cccc2c1C(NC[C@]1(c3ccccc3)CC[C@H](NC(=O)OC(C)C)CC1)=NS2(=O)=O

Reply:
21
27
7
14

Taken from ChEMBL document CHEMBL3621160.
